Provide the recorded TGI for the entries that follow.
Test system: SNB-75 CNS
Assay Procedure: NCI tumour cell line growth inhibition, 48 h
Answers are plain numbers, in µM.

Some entries whose results are on file:
{"Query Smiles": "CSc1nc(Cl)c(Br)c(Nc2c[nH]c(=O)[nH]c2=O)n1", "Target System": "SNB-75 CNS", "Readout Value": 42.7}
{"Query Smiles": "Cc1ccnc(NC(=S)Nc2ccccc2Cl)c1", "Target System": "SNB-75 CNS", "Readout Value": 71.7}
{"Query Smiles": "NC(=O)Nc1ccc2ncnc(Nc3ccc(Cl)cc3)c2c1", "Target System": "SNB-75 CNS", "Readout Value": 61}

State recorded TGI for all listed compounds.
1. NC1=CC(=O)C(=O)c2cccnc21
2. Cc1cc2nc3ccc(N=Nc4ccc(N(C)C)cc4)cc3n(-c3ccccc3)c-2cc1=N
3. Cc1ccc(C(=O)Nc2ccc(CN3CCN(C)CC3)c(C(F)(F)F)c2)cc1C#Cc1cncc2ncccc12

[15.3, 1.25, 1.39]

====

// MDA-MB-435 GI50 records

{"Compound": "COc1ccc(-c2nnc3n(C)c(=O)c4ccccc4n23)cc1O", "Target System": "MDA-MB-435", "GI50": "0.065 µM"}
{"Compound": "CC(C)(C)c1ccc(C(=O)N/N=C/c2ccc(O)cc2O)cc1", "Target System": "MDA-MB-435", "GI50": "0.806 µM"}
{"Compound": "COc1cc2c(cc1OCCCCCCNC(=O)c1cc3ccccc3[nH]1)N=CC1CCCN1C2=O (centres undefined)", "Target System": "MDA-MB-435", "GI50": "39.3 µM"}

Entry Cc1cc[c-]cc1.Fc1c[c-]c(-c2ccccn2)c(F)c1.N#CCC[PH+](CCC#N)c1ccccc1.[Pt+2] has what GI50?
2.47 µM

====

System: SF-295 CNS
Assay Procedure: NCI tumour cell line growth inhibition, 48 h
Quantity Kind: TGI

Some entries whose results are on file:
{"Compound": "CCOC(OCC)C(CCc1ccccc1)c1c(N)nc(N)[nH]c1=O (stereo not drawn)", "TGI": "> 100 µM"}
{"Compound": "COC(=O)C1(NC(=O)C(N)CC(=O)O)C(C)C1C (stereo not drawn)", "TGI": "> 100 µM"}

Now consider a different compound.
Entry O=C(CCc1cc(O)cc(O)c1)NCCc1ccc(O)c(O)c1 has what TGI?
> 100 µM

====

Tested on: MOLT-4 leukemia
Assay Procedure: NCI tumour cell line growth inhibition, 48 h
Quantity Kind: TGI

Some entries whose results are on file:
{"Compound": "C=CCN1CC2CN=NC2(C#N)C1 (configuration not stated)", "TGI": "> 100 µM"}
{"Compound": "C=CCC1NCCC2=C1C(S(=O)(=O)c1ccc(C)cc1)c1ccccc12 (configuration not stated)", "TGI": "> 100 µM"}
{"Compound": "COc1cc(Nc2ncc3c(n2)-c2ccc(Cl)cc2C(c2c(F)cccc2OC)=NC3)ccc1C(=O)O", "TGI": "> 75.9 µM"}
{"Compound": "CC(C)[C@@H](C(=O)O[C@@H]1/C=C/C(=O)O[C@@H](C)CCC/C=C/[C@@H]2C[C@H](O)C[C@H]21)[N+](C)(C)C", "TGI": "> 100 µM"}
{"Compound": "O=C(O)c1cn(C2CC2)c2cc(N3CCN(S(=O)(=O)c4ccc(Cl)c(Cl)c4)CC3)c(F)cc2c1=O", "TGI": "> 100 µM"}

State recorded TGI for all listed compounds.
1. NCCCn1c2c(c3ccc([N+](=O)[O-])cc3c1=O)C(=O)c1cc3c(cc1-2)OCO3
2. Nc1c(C(=O)Nc2cccc3ccccc23)sc2nc3c(cc12)CCCC3
3. O=C(c1ccc(O)cc1)c1ccc(C(=O)c2ccc(O)cc2)cc1

1: > 100 µM; 2: > 100 µM; 3: > 100 µM
